# System: PXR homodimer (NR concentration 270 nM)
# assayProtocol: PBM binding z-score (relative to random genomic background probes); higher = stronger binding; sequences stand for … in GC…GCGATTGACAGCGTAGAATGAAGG
Please enter yes where PBM binding z-score is greater than or equal to -0.3, and no where it is lower.

chainsequence=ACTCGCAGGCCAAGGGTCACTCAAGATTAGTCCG studysystem="PXR homodimer (NR concentration 270 nM)" discretelabel=yes

Enquiry: Check if PBM binding z-score >= -0.3 (inclusive). Item: `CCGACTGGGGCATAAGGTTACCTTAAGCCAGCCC`
Return: no

Enquiry: Check if PBM binding z-score >= -0.3 (inclusive). Item: `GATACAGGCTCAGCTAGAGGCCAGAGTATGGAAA`
Return: no

Enquiry: Check if PBM binding z-score >= -0.3 (inclusive). Item: `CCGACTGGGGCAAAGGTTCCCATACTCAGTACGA`
Return: yes

Enquiry: Check if PBM binding z-score >= -0.3 (inclusive). Item: `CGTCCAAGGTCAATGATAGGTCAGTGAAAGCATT`
Return: yes
